Below, each of the compounds is paired with its reported IC50 value.
Target: BRD4 Bromodomain 1 (BRD4 BD1) (Homo sapiens, UniProt O60885)
Construct: 44-168 and BRD4 BD2
Assay: AlphaScreen binding assay, BRD4 BD1
Conditions: His-tagged BRD4 BD1 50 nM, biotinylated H4 (1-21) K5/8/12/16 tetra-acetylated peptide 50 nM, compounds listed under IC50 range headings

COC(=O)N1c2ccc(-c3cnn(C4CC4)c3)c(OCC(F)F)c2CC[C@@H]1C	1 to 10 µM
CCCOc1c(-c2cc3ccccc3o2)ccc2c1CC[C@H](C)N2C(C)=O	1 to 10 µM
CCCOc1c(-c2cnn(C3CCNCC3)c2)ccc2c1CC[C@H](C)N2C(=O)OC	0.1 to 1 µM

If you can, please state the reported IC50 value of COC(=O)N1c2ccc(-c3cnn(C4CCNCC4)c3)c(Oc3ncc(C4CC4)cn3)c2CC[C@@H]1C . 1 to 10 µM

// same read-out, input: CC(=O)N1c2ccc(-c3ccc(S(C)(=O)=O)cc3)c(Oc3ccccc3)c2CCC1C (racemic) 1 to 10 µM

// same read-out, input: CC(=O)N1c2ccc(-c3cnn(C4CC4)c3)c(OCc3ncc(C)o3)c2CC[C@@H]1C 1 to 10 µM

// same read-out, input: C[C@H]1CCc2c(ccc(-c3ccnn3C3CCNCC3)c2OC2CCC2)N1C(=O)C1CC1 ≥ 10 µM

// same read-out, input: C[C@H]1CCc2c(ccc(-c3cnn(C4CCOCC4)c3)c2OC2CCC2)N1C(=O)C1CC1 0.1 to 1 µM

// same read-out, input: CNC(=O)COc1c(-c2cnn(C3CC3)c2)ccc2c1CC[C@H](C)N2C(C)=O 1 to 10 µM

// same read-out, input: CC(=O)N1c2ccc(-c3cnn(C4CC4)c3)c(OC3CC(F)(F)C3)c2CC[C@@H]1C 0.1 to 1 µM

// same read-out, input: CCCOc1c(-c2ccc(C(=O)N3CCOCC3)cc2)ccc2c1CC[C@H](C)N2C(C)=O 1 to 10 µM

// same read-out, input: COC(=O)N1c2ccc(-c3cnn(C4CC4)c3)c(OCC(=O)N3CCC3)c2CC[C@@H]1C 0.1 to 1 µM

// same read-out, input: COC(=O)N1c2ccc(-c3cnn(C4CCN(C)CC4OC)c3)c(OC3CCC3)c2CC[C@@H]1C (stereo partly shown) 0.1 to 1 µM

// same read-out, input: C[C@H]1CCc2c(OC3CCC3)c(-c3cnn(C4CC4)c3)cc(F)c2N1C(=O)C1CC1 1 to 10 µM

// same read-out, input: COC(=O)N1c2ccc(-c3cnn(C4CC4)c3)c(Oc3ccc(F)cc3)c2CC[C@@H]1C 1 to 10 µM

// same read-out, input: COC(=O)N1c2ccc(-c3cnn(CC(C)(C)O)c3)c(OCC(C)C)c2CC[C@@H]1C 1 to 10 µM

// same read-out, input: CC(=O)N1c2c(F)cc(-c3cnn(C4CC4)c3)c(Oc3ccccc3)c2CC[C@@H]1C 0.1 to 1 µM

// same read-out, input: COC(=O)N1c2ccc(-c3cnn(C4CCNCC4)c3)c(OCC(=O)N(C)C)c2CC[C@@H]1C 1 to 10 µM

Values from patent US10611750B2
